Molecular target: Phosphodiesterase 4 (Homo sapiens, UniProt P27815+Q08499+Q07343+Q08493)
Assay: Inhibition of cAMP hydrolysis by human Phosphodiesterase 4
Format: protein assay
MEASURED PROPERTY: Ki (nM)

Enquiry: Please give measured Ki of the following entry: `COC(=O)N1C[C@@H](c2ccc(OC)c(OC3CCCC3)c2)[C@](C)(C(C)=O)C1`
Return: 1

Enquiry: Give the value of Ki reported for the following: `COC(=O)N1C[C@@H](c2ccc(OC)c(OC3CCCC3)c2)[C@](C)(CO)C1`
Return: 37

Enquiry: Query Ki for `CC[C@@]1(C(C)=O)CN(C(=O)OC)C[C@H]1c1ccc(OC)c(OC2CCCC2)c1`
Return: 10

Enquiry: Consider the molecule `COC(=O)N1C[C@@H](CO)[C@H](c2ccc(OC)c(OC3CCCC3)c2)C1` and give its recorded Ki.
Return: 224

Enquiry: Provide measured Ki value, entry: `COC(=O)N1CC[C@H](c2ccc(OC)c(OC3CCCC3)c2)C1`
Return: 110

(I) COC(=O)[C@@H]1CN(C(=O)OC)C[C@H]1c1ccc(OC)c(OC2CCCC2)c1
(II) COC(=O)N1C[C@H](C)[C@H](c2ccc(OC)c(OC3CCCC3)c2)C1
(III) CCOC(=O)[C@@H]1CN(C(=O)OC)C[C@H]1c1ccc(OC)c(OC2CCCC2)c1
(IV) COC(=O)N1C[C@@H](c2ccc(OC)c(OC3CCCC3)c2)[C@](C)(C(=O)OC)C1
(V) COC(=O)N1C[C@@H](C(C)=O)[C@H](c2ccc(OC)c(OC3CCCC3)c2)C1
Enquiry: Arrange the 5 entries by Ki so the values rise. List the labels, following the order given in the request.
Return: IV, V, II, I, III
